The reported measurements were obtained from patent US20260373102A1.

Test: Chemical stability of Guanfacine solutions in WFI at room temperature (vials, IV bags; HPLC)
Format: physicochemical
Details: water; 0.5 mg/mL in WFI in vials, pH 5.7, 72 hours, RRT 1.00; read-out: Area % of guanfacine peak (peak 1)
property.name: remaining at 72 h

molecule	property.name	recorded.value
N=C(N)NC(=O)Cc1c(Cl)cccc1Cl [Guanfacine]	remaining at 72 h	99.8%

* * *

Assay: Chemical stability of Guanfacine solutions in WFI at room temperature (vials, IV bags; HPLC)
Assay type: physicochemical
Conditions: water; 0.5 mg/mL in WFI in IV bags, pH 5.0, 72 hours, RRT 1.00; read-out: Area % of guanfacine peak (peak 1)
property.name: remaining at 72 h (%)

N=C(N)NC(=O)Cc1c(Cl)cccc1Cl 99.8

* * *

Experiment: Chemical stability of Guanfacine solutions in WFI at room temperature (vials, IV bags; HPLC)
Format: physicochemical
Details: water; glass vials, pH 4.5, one week at room temperature, 1.14 mg/mL; read-out: degradation product formed
property.name: degraded at 168 h (%)

N=C(N)NC(=O)Cc1c(Cl)cccc1Cl 0.26

* * *

Assay: Chemical stability of Guanfacine solutions in WFI at room temperature (vials, IV bags; HPLC)
Assay type: physicochemical
Settings: water; 0.5 mg/mL in WFI in IV bags, pH 5.0, 24 hours, RRT 1.00; read-out: Area % of guanfacine peak (peak 1)

compound	remaining at 24 h
N=C(N)NC(=O)Cc1c(Cl)cccc1Cl [Guanfacine]	99.8%

* * *

Test: Chemical stability of Guanfacine solutions in WFI at room temperature (vials, IV bags; HPLC)
Type: physicochemical
Conditions: water; vials, pH 5.7, 72 hours at room temperature, 0.5 mg/mL; read-out: degradation product formed
property.name: degraded at 72 h

compound	recorded.value
N=C(N)NC(=O)Cc1c(Cl)cccc1Cl [Guanfacine]	0.23%

* * *

Experiment: Chemical stability of Guanfacine solutions in WFI at room temperature (vials, IV bags; HPLC)
Assay type: physicochemical
Details: water; 0.5 mg/mL in WFI in vials, pH 5.7, 24 hours, RRT 8.58; read-out: Area % of peak 4 (degradation product)
property.name: degraded at 24 h (%)

N=C(N)NC(=O)Cc1c(Cl)cccc1Cl 0.1

* * *

Test: Guanfacine solubility at pH 7.0 and 8.0
Assay type: physicochemical
Conditions: sodium phosphate buffer, aqueous buffer; pH 8.0, sodium phosphate, 0.22 μm filtered, after 1 hour of sonication, HPLC; read-out: concentration of filtered sample (solubility)
Structures can show the parent of a compound that is named as a salt.
property.name: solubility at 1 h

compound	property.name	recorded.value
N=C(N)NC(=O)Cc1c(Cl)cccc1Cl [Guanfacine-HCl]	solubility at 1 h	~120 µg/mL
